biological target: CYP3A4 (Homo sapiens); assay: MesaPlate metabolic stability; settings: human, Baculosomes with CYP3A4
Sequence (P08684 whole entry): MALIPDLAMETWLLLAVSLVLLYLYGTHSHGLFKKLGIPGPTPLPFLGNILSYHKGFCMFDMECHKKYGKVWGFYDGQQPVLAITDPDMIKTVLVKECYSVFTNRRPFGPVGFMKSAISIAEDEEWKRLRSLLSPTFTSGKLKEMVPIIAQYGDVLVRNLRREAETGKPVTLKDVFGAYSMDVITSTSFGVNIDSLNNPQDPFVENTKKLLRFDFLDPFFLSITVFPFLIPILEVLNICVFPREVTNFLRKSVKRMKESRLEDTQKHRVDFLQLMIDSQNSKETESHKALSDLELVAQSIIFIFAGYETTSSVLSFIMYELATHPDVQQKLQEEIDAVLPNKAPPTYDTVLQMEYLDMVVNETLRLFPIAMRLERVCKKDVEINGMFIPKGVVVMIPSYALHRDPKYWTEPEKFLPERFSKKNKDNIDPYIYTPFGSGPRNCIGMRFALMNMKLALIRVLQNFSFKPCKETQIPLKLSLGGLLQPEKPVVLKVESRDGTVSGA
measurement name: Km (µM)

• C[C@]12CC[C@H]3[C@@H](CCC4=CC(=O)CC[C@@]43C)[C@@H]1CC[C@@H]2O [Testosterone] = 31

---

biological target: CYP3A4 (Homo sapiens); test: Inhibition of CYP3A4-catalyzed testosterone metabolism in Baculosomes
pIC50: −log10 of the molar value.
measurement name: pIC50

* c1ccc(-n2ccnc2)cc1 | 5.62

---

biological target: CYP2C9 (Homo sapiens, UniProt P11712); experiment: in vitro
Sequence (P11712 whole entry): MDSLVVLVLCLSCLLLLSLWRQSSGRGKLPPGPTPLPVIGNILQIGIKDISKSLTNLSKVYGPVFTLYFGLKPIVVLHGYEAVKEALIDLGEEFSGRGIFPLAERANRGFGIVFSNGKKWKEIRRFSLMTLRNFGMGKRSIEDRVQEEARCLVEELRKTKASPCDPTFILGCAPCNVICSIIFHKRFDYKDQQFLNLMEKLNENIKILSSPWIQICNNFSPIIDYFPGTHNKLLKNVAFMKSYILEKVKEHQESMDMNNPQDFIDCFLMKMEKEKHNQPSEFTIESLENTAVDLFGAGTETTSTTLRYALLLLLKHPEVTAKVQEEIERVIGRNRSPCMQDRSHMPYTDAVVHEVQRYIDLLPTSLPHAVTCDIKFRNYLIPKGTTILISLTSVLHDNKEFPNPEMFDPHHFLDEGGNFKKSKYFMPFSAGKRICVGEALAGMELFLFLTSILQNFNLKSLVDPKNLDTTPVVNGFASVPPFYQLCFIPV
measurement name: Km (µM)

• O=C(O)Cc1ccccc1Nc1c(Cl)cccc1Cl = 20
